Can you tell me Kd for the items I'm about to list?
- tested.system: T1, PUF4 RNA-binding domain (Saccharomyces cerevisiae, UniProt P25339 537-888)
- T1 sequence: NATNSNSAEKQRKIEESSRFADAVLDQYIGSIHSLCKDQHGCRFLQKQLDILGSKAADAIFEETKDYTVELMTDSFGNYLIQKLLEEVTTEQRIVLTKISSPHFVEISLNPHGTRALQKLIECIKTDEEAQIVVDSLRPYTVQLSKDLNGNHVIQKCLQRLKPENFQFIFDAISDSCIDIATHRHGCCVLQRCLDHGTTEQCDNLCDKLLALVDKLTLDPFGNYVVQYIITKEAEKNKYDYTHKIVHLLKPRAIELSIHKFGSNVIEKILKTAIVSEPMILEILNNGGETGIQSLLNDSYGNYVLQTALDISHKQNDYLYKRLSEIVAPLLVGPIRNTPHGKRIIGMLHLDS
- assay.procedure: Mg; RNA-MaP; 20 mM Na-HEPES pH 7.4, 30 mM KOAc, 0.75 mM MgCl2, 0.1% Tween-20, 5% glycerol, 0.1 mg/mL BSA, 2 mM DTT; 25 C; 0.0125-409.6 nM protein
- study.conditions: tags: N-His6-TEV cleaved; C-SNAP kept, Cy3B-labelled; label: tethered on chip by stalled RNA polymerase
Report the value in nM with no unit label.

Suppose we examine the binder Id_ii_S4_P4E.3_K4.2_C4.2_H4.2_A4.1_F4.1_T4.2_[G10A] (ssRNA) RNA: UUUGACAACUGAUCGUUCUUUCUCUUAUAUAUUAAUUUCUUUCUCGAUCAGUUGUCUUU ; what Kd value has been reported?
10.8

Now the same for Id_ii_S2_P4E.3_K4.2_C4.2_[C-2G]_[T-1C]_H4.2_A4.1_F4.1_T4.2_[G10C]_[T11A] (ssRNA) RNA: UUUGAUUAAUAUGAUAUCGUUCUUUCUGCUAUAUAUUACAUUCUUUCUCGAUAUCAUAUUAAUCUUU
56.6

Now the same for Ib_S4_P5E.1_K5.1_C5.1_H5.1_A5.1_[T5C]_[A7T]_F5.1_T5.1 (ssRNA) RNA: UUUGACAACUGAUCGUUCUUUCUUGUACUUUUAUUCUUUCUCGAUCAGUUGUCUUU
1.71

Now the same for UCUCUUUGUAUACCACUCUCUU (ssRNA) [Ic_S1_P5E.1_K5.1_C5.1_H5.1_A5.1_[T6A]_[A7C]_F5.1_[T8C]_[T9A]_[A10C]_T5.1]
20.7

Now the same for Id_ii_S4_P3E.3_K3.2_C3.2_[C-2G]_[T-1G]_H3.2_A3.1_F3.1_T3.2_[A10T] (ssRNA) RNA: UUUGACAACUGAUCGUUCUUUCUGGUAUAUAUAUUUUCUUUCUCGAUCAGUUGUCUUU
234
